# test-target: GABAA receptor β3 subunit (Homo sapiens)
# Construct: gene GABRB3
# Sequence (P28472 26-473): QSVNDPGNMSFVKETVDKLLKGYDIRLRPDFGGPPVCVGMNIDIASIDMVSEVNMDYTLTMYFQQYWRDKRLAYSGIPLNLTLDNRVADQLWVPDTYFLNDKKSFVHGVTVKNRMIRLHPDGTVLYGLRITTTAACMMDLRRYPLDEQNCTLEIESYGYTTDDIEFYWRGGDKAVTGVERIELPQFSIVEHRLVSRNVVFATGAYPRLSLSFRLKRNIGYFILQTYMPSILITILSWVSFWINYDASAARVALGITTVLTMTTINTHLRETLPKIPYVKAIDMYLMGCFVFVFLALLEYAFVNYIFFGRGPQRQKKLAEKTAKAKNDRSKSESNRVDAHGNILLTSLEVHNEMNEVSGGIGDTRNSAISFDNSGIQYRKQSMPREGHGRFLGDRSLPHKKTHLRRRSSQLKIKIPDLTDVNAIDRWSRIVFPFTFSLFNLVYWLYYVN
# Sequence (P14867 28-456 partner): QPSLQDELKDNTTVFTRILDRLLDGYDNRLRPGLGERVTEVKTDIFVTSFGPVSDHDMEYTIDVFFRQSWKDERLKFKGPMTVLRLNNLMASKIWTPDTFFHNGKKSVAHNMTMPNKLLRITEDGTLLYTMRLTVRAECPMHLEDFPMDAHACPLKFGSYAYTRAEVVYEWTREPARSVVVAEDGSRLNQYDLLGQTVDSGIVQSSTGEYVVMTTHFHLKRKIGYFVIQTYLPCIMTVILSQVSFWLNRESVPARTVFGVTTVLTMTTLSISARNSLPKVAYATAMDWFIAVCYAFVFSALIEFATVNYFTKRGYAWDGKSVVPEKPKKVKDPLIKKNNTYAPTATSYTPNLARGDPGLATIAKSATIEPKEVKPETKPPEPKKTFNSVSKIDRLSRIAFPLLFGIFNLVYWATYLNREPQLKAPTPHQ
# assay-method-text: biochemical
observed-property: EC50 (nM)
Report only the number, with the unit nM understood.

Request: Please report the recorded EC50 for C#CCCO[C@H]1C[C@]2(C)C3CC[C@@]4(C)C(CC[C@@H]4OC)C3CC3(N=N3)C2C[C@@H]1O (stereo partly shown) [KK123] .
Result: 1600
